- measuredOn: Tyrosine-protein phosphatase non-receptor type 1 (Homo sapiens) (UniProt P18031)
- experiment: Inhibition of human recombinant GST-tagged PTP1B catalytic domain expressed in Escherichia coli BL21-[…] plus (DE3) at 20 ug/ml using pNPP as substrate relative to control
parameterMeasured: inhibition (%)

These solved cases illustrate the format of a correct answer.
>  <smiles>
CCOC(=O)c1c(C)[nH]c(/C=C2\S/C(=N/O)N(C(C)C)C2=O)c1C

>  <measuredOn>
Tyrosine-protein phosphatase non-receptor type 1 (Homo sapiens) (UniProt P18031)

>  <measuredResult>
95.8

$$$$
>  <smiles>
CCOC(=O)c1c(C)[nH]c(/C=C2\S/C(=N\c3ccc(F)cc3)N(c3ccc(F)cc3)C2=O)c1C

>  <measuredOn>
Tyrosine-protein phosphatase non-receptor type 1 (Homo sapiens) (UniProt P18031)

>  <measuredResult>
94.5

$$$$
>  <smiles>
CCOC(=O)c1c(C)[nH]c(/C=C2\S/C(=N\c3ccccc3F)N(c3ccccc3F)C2=O)c1C

>  <measuredOn>
Tyrosine-protein phosphatase non-receptor type 1 (Homo sapiens) (UniProt P18031)

>  <measuredResult>
98.3

$$$$
>  <smiles>
CCOC(=O)c1c(C)[nH]c(/C=C2\S/C(=N\c3cccc(F)c3)N(c3cccc(F)c3)C2=O)c1C

>  <measuredOn>
Tyrosine-protein phosphatase non-receptor type 1 (Homo sapiens) (UniProt P18031)

>  <measuredResult>
96.3

$$$$
>  <smiles>
CCOC(=O)c1c(C)[nH]c(/C=C2\S/C(=N\c3ccc(OC)cc3)N(c3ccc(OC)cc3)C2=O)c1C

>  <measuredOn>
Tyrosine-protein phosphatase non-receptor type 1 (Homo sapiens) (UniProt P18031)

>  <measuredResult>
98.7

$$$$

A = CC/N=C1\S/C(=C\c2ccc(OCCN(C)c3ccccn3)cc2)C(=O)N1CC
B = CCOC(=O)c1c(C)[nH]c(/C=C2\S/C(=N\c3ccccc3)N(c3ccccc3)C2=O)c1C
C = CC(C)N1C(=O)/C(=C/c2ccc(OCCN(C)c3ccccn3)cc2)S/C1=N\O
D = CCOC(=O)c1c(C)[nH]c(/C=C2\S/C(=N\c3ccc(C)cc3)N(c3ccc(C)cc3)C2=O)c1C
Sort (4 compounds) by inhibition: min first. Use the labels to give the requested order.
D, A, C, B
(D: 28.4%, A: 42.1%, C: 67.5%, B: 99.9%)

* * *

- measuredOn: M-phase inducer phosphatase 2 (Homo sapiens, UniProt P30305)
- experiment: Inhibition of human recombinant GST-tagged CDC25B assessed as reduction in dephosphorylation of florigenic phosphatase substrate preincubated for 1 hr followed by substrate addition measured after 1 hr by fluorescence assay
parameterMeasured: IC50 (nM)

Below, 4 molecules whose answers are already recorded.
>  <smiles>
CCOC(=O)c1c(C)[nH]c(/C=C2\S/C(=N\c3ccccc3F)N(c3ccccc3F)C2=O)c1C

>  <IC50 [nM]>
3660

$$$$
>  <smiles>
CCOC(=O)c1c(C)[nH]c(/C=C2\S/C(=N\c3cccc(F)c3)N(c3cccc(F)c3)C2=O)c1C

>  <IC50 [nM]>
3390

$$$$
>  <smiles>
CC(C)N1C(=O)/C(=C/c2ccc(OCCN(C)c3ccccn3)cc2)S/C1=N\O

>  <IC50 [nM]>
2470

$$$$
>  <smiles>
CCOC(=O)c1c(C)[nH]c(/C=C2\S/C(=N\c3ccc(OC)cc3)N(c3ccc(OC)cc3)C2=O)c1C

>  <IC50 [nM]>
2740

$$$$

1 = CCOC(=O)c1c(C)[nH]c(/C=C2\S/C(=N\c3ccc(F)cc3)N(c3ccc(F)cc3)C2=O)c1C
2 = CCOC(=O)c1c(C)[nH]c(/C=C2\S/C(=N/O)N(C(C)C)C2=O)c1C
3 = CCOC(=O)c1c(C)[nH]c(/C=C2\S/C(=N\c3ccccc3)N(c3ccccc3)C2=O)c1C
Order the 3 molecules from highest to lowest IC50. Answer format: the labels, in the requested order.
2, 1, 3
(2: 5830 nM, 1: 2870 nM, 3: 1660 nM)

* * *

- measuredOn: UniProt:P30305
- Sequence (whole entry): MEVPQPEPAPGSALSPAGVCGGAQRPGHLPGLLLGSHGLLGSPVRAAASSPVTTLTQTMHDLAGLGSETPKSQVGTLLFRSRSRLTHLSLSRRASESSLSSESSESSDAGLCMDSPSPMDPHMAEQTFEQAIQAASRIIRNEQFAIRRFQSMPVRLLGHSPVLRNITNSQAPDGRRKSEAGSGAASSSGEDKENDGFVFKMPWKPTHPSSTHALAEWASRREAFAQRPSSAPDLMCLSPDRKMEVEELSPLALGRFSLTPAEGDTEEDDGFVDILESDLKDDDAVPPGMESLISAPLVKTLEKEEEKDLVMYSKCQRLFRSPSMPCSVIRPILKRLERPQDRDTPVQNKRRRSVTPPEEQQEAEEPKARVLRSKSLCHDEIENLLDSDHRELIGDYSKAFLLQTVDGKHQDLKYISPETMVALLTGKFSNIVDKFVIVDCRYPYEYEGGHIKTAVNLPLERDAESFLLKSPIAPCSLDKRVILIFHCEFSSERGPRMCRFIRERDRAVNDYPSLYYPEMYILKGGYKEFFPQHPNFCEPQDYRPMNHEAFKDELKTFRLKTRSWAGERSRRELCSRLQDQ
- experiment: Inhibition of human recombinant GST-tagged CDC25B assessed as reduction in dephosphorylation of florigenic phosphatase substrate at 5 ug/ml preincubated for 1 hr followed by substrate addition measured after 1 hr by fluorescence assay relative to control
parameterMeasured: inhibition (%)

>  <smiles>
CCOC(=O)c1c(C)[nH]c(/C=C2\S/C(=N\c3ccccc3F)N(c3ccccc3F)C2=O)c1C

>  <measuredOn>
UniProt:P30305

>  <measuredResult>
64.2

$$$$
>  <smiles>
CCOC(=O)c1c(C)[nH]c(/C=C2\S/C(=N\c3ccccc3)N(c3ccccc3)C2=O)c1C

>  <measuredOn>
UniProt:P30305

>  <measuredResult>
83.7

$$$$
>  <smiles>
CCOC(=O)c1c(C)[nH]c(/C=C2\S/C(=N\c3cccc(F)c3)N(c3cccc(F)c3)C2=O)c1C

>  <measuredOn>
UniProt:P30305

>  <measuredResult>
82.8

$$$$
>  <smiles>
CCOC(=O)c1c(C)[nH]c(/C=C2\S/C(=N\c3ccc(F)cc3)N(c3ccc(F)cc3)C2=O)c1C

>  <measuredOn>
UniProt:P30305

>  <measuredResult>
84.7

$$$$
>  <smiles>
CCOC(=O)c1c(C)[nH]c(/C=C2\S/C(=N\c3ccc(OC)cc3)N(c3ccc(OC)cc3)C2=O)c1C

>  <measuredOn>
UniProt:P30305

>  <measuredResult>
76.5

$$$$
>  <smiles>
CC(C)N1C(=O)/C(=C/c2ccc(OCCN(C)c3ccccn3)cc2)S/C1=N\O

>  <measuredOn>
UniProt:P30305

>  <measuredResult>
98.5

$$$$
>  <smiles>
CCOC(=O)c1c(C)[nH]c(/C=C2\S/C(=N/O)N(C(C)C)C2=O)c1C

>  <measuredOn>
UniProt:P30305

>  <measuredResult>
80.2

$$$$

* * *

- measuredOn: Tyrosine-protein phosphatase non-receptor type 1 (Homo sapiens) (UniProt P18031)
- experiment: Inhibition of human recombinant GST-tagged PTP1B catalytic domain expressed in Escherichia coli BL21-[…] plus (DE3) at 5 ug/ml using pNPP as substrate relative to control
parameterMeasured: inhibition (%)

I = CCOC(=O)c1c(C)[nH]c(/C=C2\S/C(=N/O)N(C(C)C)C2=O)c1C
II = CC(C)N1C(=O)/C(=C/c2ccc(OCCN(C)c3ccccn3)cc2)S/C1=N\O
III = CCOC(=O)c1c(C)[nH]c(/C=C2\S/C(=N\c3ccccc3)N(c3ccccc3)C2=O)c1C
Put the above entries in order of falling inhibition. Would you mind listing the labels in the order asked for?
III, I, II
(III: 81.1%, I: 49%, II: 19.3%)

P = CCOC(=O)c1c(C)[nH]c(/C=C2\S/C(=N\c3ccccc3F)N(c3ccccc3F)C2=O)c1C
Q = CCOC(=O)c1c(C)[nH]c(/C=C2\S/C(=N\c3ccc(F)cc3)N(c3ccc(F)cc3)C2=O)c1C
Quick check, higher inhibition between P and Q ? Could you answer with the label of the item you picked?
Q

I = CCOC(=O)c1c(C)[nH]c(/C=C2\S/C(=N\c3ccc(OC)cc3)N(c3ccc(OC)cc3)C2=O)c1C
II = CCOC(=O)c1c(C)[nH]c(/C=C2\S/C(=N\c3cccc(F)c3)N(c3cccc(F)c3)C2=O)c1C
Between I and II , which one has the lower reported inhibition value? Reply with the label of the item you choose.
I

* * *

- measuredOn: Tyrosine-protein phosphatase non-receptor type 1 (Homo sapiens, UniProt P18031)
- Sequence (P18031 whole entry): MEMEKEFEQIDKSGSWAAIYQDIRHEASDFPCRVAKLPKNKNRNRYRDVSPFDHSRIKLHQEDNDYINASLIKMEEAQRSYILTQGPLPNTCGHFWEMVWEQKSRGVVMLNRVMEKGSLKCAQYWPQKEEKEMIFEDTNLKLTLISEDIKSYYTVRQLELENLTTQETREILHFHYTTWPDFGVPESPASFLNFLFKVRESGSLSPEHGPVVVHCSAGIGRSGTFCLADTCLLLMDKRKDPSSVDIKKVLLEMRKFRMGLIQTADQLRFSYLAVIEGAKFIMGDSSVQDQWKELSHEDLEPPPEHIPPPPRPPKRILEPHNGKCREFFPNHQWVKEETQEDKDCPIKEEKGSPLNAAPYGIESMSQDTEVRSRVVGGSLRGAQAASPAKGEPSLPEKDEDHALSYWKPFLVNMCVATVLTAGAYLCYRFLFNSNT
- experiment: Inhibition of PTP1B (unknown origin)
parameterMeasured: IC50 (µM)
Express your answer in µM, writing the number without its unit.

Name the reported IC50 value associated with the compound Cc1cc(I)cc2c1NC(c1cccc(N)c1)C1CC=CC21 (stereo unspecified)
7.5
